# Measured on: UniProt P31645
# Sequence (P31645 whole entry): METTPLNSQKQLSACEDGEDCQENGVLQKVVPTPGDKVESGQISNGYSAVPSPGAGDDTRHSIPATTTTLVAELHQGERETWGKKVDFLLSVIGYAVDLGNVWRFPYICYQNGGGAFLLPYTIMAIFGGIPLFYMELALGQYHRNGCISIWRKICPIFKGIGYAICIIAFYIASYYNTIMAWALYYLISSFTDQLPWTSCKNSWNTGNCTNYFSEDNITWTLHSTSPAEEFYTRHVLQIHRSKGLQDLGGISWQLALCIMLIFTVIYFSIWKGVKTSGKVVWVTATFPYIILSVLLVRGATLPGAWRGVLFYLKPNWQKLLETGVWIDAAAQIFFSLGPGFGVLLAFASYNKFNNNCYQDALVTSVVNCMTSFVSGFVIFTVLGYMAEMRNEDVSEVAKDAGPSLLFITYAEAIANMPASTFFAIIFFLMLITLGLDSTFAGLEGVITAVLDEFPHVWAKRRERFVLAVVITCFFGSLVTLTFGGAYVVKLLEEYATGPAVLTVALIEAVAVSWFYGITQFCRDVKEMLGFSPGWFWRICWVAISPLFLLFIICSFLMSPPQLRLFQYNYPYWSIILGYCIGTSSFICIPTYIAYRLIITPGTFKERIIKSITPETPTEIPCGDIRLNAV
Readout kind: Ki (nM)
Reply with just the number (in nM).

Prompt line: Using the record for `Clc1ccc(CNCc2ccc(Cn3cncn3)cc2)c(Cl)c1` , report its Ki.
Response line: 1800
